Cited source: patent US10981911B2

system: P-gp (MDR1); test: MDCK-MDR1 permeability assay; assay type: in vitro ADME; conditions: dog, MDCK-MDR1, pH 7.4, MDCK-MDR1, 5 μM; read-out: Papp(B-A)/Papp(A-B) (efflux ratio)
measured.endpoint: efflux ratio at 60 min, 5 μM

compound="N#CC[C@H]1CC[C@H](n2c(CC(=O)NC3CCOCC3)nc3cnc4[nH]ccc4c32)CC1 [Ex. 5]" assayed_target="P-gp (MDR1)" observed="> 4.8"
compound="N#CC[C@H]1CC[C@H](n2c(CC(=O)NCC3CCOCC3)nc3cnc4[nH]ccc4c32)CC1 [Ex. 10]" assayed_target="P-gp (MDR1)" observed="> 8.4"
compound="N#CC[C@H]1CC[C@H](n2c(CC(=O)NCC3CC3)nc3cnc4[nH]ccc4c32)CC1 [Ex. 3]" assayed_target="P-gp (MDR1)" observed="> 41"
compound="N#CCC1CCC(n2c(-c3c[nH]cn3)nc3cnc4[nH]ccc4c32)CC1 (stereo not drawn) [Ex. 2]" assayed_target="P-gp (MDR1)" observed=4.4
compound="CC(C)(C#N)CNC(=O)Cc1nc2cnc3[nH]ccc3c2n1[C@H]1CC[C@H](CC#N)CC1 [Ex. 22]" assayed_target="P-gp (MDR1)" observed="> 9"

Now look at this one.
Query block: # get_value(readout='efflux ratio at 60 min, 5 μM', item= N#CC[C@H]1CC[C@H](n2c(CC(=O)NCC3(O)CCC3)nc3cnc4[nH]ccc4c32)CC1 [Ex. 34] )
Result block: 11.5

---

IC50 values by entry
molecular target: JAK1-JH1JH2 (Homo sapiens (Human))
Sequence (P23458 574-1154): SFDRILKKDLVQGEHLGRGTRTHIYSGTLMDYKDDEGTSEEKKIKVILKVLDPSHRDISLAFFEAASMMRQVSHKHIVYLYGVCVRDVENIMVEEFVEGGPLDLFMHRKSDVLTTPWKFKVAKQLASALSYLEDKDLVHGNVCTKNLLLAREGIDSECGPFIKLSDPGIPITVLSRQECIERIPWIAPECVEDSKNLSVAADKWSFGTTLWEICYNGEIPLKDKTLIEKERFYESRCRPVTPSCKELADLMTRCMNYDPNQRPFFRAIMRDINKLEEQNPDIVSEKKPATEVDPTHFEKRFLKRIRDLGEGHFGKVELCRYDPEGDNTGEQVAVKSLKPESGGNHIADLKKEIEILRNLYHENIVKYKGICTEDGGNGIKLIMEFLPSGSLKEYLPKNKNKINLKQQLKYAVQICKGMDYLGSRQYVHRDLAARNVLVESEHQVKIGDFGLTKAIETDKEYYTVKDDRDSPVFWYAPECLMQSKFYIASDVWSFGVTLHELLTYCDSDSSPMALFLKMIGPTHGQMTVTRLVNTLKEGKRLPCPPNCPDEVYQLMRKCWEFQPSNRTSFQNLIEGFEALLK
Write the value in nM as a bare number.

Worked examples follow.
compound="N#CC[C@H]1CC[C@H](n2c(CC(=O)NCc3ccc(OC(F)F)cc3)nc3cnc4[nH]ccc4c32)CC1 [Ex. 79]" observed=0.4
compound="COCCNC(=O)OCc1nc2cnc3[nH]ccc3c2n1[C@H]1CC[C@H](CC#N)CC1 [Ex. 161]" observed=1.6
compound="N#CC[C@H]1CC[C@H](n2c(CN/C(CC3CCCCC3)=N/O)nc3cnc4[nH]ccc4c32)CC1 [Ex. 95]" observed=0.5

Here is the next item to consider.
Query block: Which IC50 is reported for this compound? COCC/C(N)=N/OCc1nc2cnc3[nH]ccc3c2n1[C@H]1CC[C@H](CC#N)CC1 [Ex. 72]
Result block: 0.4

---

target: JAK3-JH1JH2 (Homo sapiens (Human), UniProt P52333); assay: Enzymatic inhibition assay (RapidFire HTMS), JAK3; format: biochemical; conditions: 150 μM ATP, 40 μM substrate
Sequence (P52333 512-1124): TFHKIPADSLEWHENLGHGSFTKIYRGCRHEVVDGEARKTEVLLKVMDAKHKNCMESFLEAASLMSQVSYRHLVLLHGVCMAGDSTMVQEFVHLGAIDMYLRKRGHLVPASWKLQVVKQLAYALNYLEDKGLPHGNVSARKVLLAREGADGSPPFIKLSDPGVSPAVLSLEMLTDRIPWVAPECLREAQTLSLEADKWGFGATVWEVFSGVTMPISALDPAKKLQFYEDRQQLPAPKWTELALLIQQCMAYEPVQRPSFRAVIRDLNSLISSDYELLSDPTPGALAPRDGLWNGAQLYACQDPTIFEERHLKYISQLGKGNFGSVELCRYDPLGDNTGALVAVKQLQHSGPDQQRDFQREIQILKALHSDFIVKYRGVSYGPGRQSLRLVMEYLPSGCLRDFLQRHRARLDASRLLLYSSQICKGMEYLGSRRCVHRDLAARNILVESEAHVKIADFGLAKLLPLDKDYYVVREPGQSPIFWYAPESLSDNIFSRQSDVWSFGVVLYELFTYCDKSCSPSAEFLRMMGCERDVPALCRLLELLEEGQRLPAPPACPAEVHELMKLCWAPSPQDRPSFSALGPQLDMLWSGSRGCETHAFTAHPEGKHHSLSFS
Listing: pIC50 of selected compounds
# pIC50: negative log10 of molar concentration; output just the value

Worked examples, 5 compounds total:
compound=N#CC[C@H]1CC[C@H](n2c(CC(=O)Nc3ccc(C(O)(C(F)(F)F)C(F)(F)F)cc3)nc3cnc4[nH]ccc4c32)CC1 observed=6.53
compound=N#CC[C@H]1CC[C@H](n2c(-c3ccc(S(F)(F)(F)(F)F)cc3)nc3cnc4[nH]ccc4c32)CC1 observed=5.90
compound=N#CCCNC(=O)c1nc2cnc3[nH]ccc3c2n1[C@H]1CC[C@H](CC#N)CC1 observed=6.71
compound=C[Si](C)(C)CNC(=O)Cc1nc2cnc3[nH]ccc3c2n1[C@H]1CC[C@H](CC#N)CC1 observed=6.56
compound="[H]/N=C(\\c1ccccc1)N(O)Cc1nc2cnc3[nH]ccc3c2n1[C@H]1CC[C@H](CC#N)CC1 [Ex. 17A]" observed=7.18

Query block: Entry N#CCC(=O)N1CC(c2nc3cnc4[nH]ccc4c3n2[C@H]2CC[C@H](CC#N)CC2)C1 , system JAK3-JH1JH2 (Homo sapiens (Human), UniProt P52333): what pIC50 was measured?
Result block: 5.97

Query block: Now consider N#CC[C@H]1CC[C@H](n2c(CNC(=O)c3ccccc3)nc3cnc4[nH]ccc4c32)CC1 and answer again.
Result block: 6.12

Query block: Another compound to look at: N#CC[C@H]1CC[C@H](n2c(C(=O)NCCO)nc3cnc4[nH]ccc4c32)CC1
Result block: 6.99

Query block: Again, but for N#CC[C@H]1CC[C@H](n2c(CC(=O)NCC3(O)CC3)nc3cnc4[nH]ccc4c32)CC1
Result block: 7.17

---

Target: JAK2-JH1JH2 (Homo sapiens (Human))
Sequence (O60674 532-1132): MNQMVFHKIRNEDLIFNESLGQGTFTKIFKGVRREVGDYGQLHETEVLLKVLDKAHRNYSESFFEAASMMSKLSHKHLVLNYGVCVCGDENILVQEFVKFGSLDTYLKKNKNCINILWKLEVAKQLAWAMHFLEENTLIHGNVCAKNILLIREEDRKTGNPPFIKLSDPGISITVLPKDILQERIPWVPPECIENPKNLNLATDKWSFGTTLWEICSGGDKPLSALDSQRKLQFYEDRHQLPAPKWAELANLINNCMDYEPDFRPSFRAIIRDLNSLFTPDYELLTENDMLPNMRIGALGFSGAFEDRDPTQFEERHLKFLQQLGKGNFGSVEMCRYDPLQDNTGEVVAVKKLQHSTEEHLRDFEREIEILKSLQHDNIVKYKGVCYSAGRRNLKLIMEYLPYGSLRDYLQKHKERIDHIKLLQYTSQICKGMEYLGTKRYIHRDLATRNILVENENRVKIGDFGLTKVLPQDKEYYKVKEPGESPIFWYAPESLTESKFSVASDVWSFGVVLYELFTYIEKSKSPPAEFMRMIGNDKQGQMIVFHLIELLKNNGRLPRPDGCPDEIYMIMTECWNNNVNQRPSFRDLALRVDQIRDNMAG
Experiment: Enzymatic inhibition assay (RapidFire HTMS), JAK2
Format: biochemical
Settings: 30 μM ATP, 40 μM substrate
Text: LC/MS grade Water and Acetonitrile (ACN), were purchased from HoneyWell, Burdick & Jackson (Muskegon, Mich., USA). Dimethylsulfoxide 99.8% (DMSO) and Trifluoroacetic Acid 99.5% (TFA) were purchased from EMD Chemical (Gibbstown, N.J., USA). Adenosine triphosphate (ATP), 4-Morpholinepropanesulfonic acid (MOPS), Magnesium chloride (MgCl2), ethylenediaminetetraacetic acid (EDTA), dithiothreitol (DTT), formic acid >95% (FA) and Tween-20 were purchased from Sigma (St Louis, Mo., USA). […]
We begin with a simple list: items and their reported IC50.
Kindly provide the numeric value in nM only, without the unit symbol.

Examples with answers:
compound="N#CC[C@H]1CC[C@H](n2c(-c3ccnc(N)n3)nc3cnc4[nH]ccc4c32)CC1 [Ex. 53]" observed=3.2
compound="N#CC[C@H]1CC[C@H](n2c(CC(=O)N3CCC[C@@H]3CO)nc3cnc4[nH]ccc4c32)CC1 [Ex. 149]" observed=54.4
compound="N#CC[C@H]1CC[C@H](n2c(CC(=O)N3CCCCC3)nc3cnc4[nH]ccc4c32)CC1 [Ex. 90]" observed=8.1
compound="CSc1nccc(-c2nc3cnc4[nH]ccc4c3n2[C@H]2CC[C@H](CC#N)CC2)n1 [Ex. 98]" observed=9.3

Query block: // IC50 lookup, key: CC(=O)N1CCC(c2nc3cnc4[nH]ccc4c3n2[C@H]2CC[C@H](CC#N)CC2)CC1 [Ex. 164]
Result block: 125

Query block: Same question, N#CC[C@H]1CC[C@H](n2c(CC(=O)N3CCC(CO)CC3)nc3cnc4[nH]ccc4c32)CC1 [Ex. 73] this time
Result block: 19.9

Query block: And the next one, CC(C)COC(=O)NCc1nc2cnc3[nH]ccc3c2n1[C@H]1CC[C@H](CC#N)CC1 [Ex. 137] ?
Result block: 25.1

Query block: Request: N#CCC12CCC(n3c(CC(=O)NCC4CCCCC4)nc4cnc5[nH]ccc5c43)(CC1)CC2 [Ex. 208]
Result block: 442

---

assay: In vivo p.o. dosing: plasma and colon tissue concentrations (Protocols 1 and 2); set-up: species or system female C57BL/6 mice; conditions: female, C57BL/6, mouse, colon, po; mice, 25 mg/kg p.o., Time = 4 h; read-out: Colon Concentration After p.o. Dosing, Mean
The following compounds are shown together with reported concentration at 4 h values.
Only the number, expressed in ng/g, is required.

compound="CC(C)(C#N)CNC(=O)Cc1nc2cnc3[nH]ccc3c2n1[C@H]1CC[C@H](CC#N)CC1 [Ex. 22]" measurement_units=ng/g observed=12000
compound="N#CCC12CCC(NC(=O)Cc3nc4cnc5[nH]ccc5c4n3[C@H]3CC[C@H](CC#N)CC3)(CC1)C2 [Ex. 55]" measurement_units=ng/g observed=3000

Query block: Would you kindly share the measured concentration at 4 h for N#CC[C@H]1CC[C@H](n2c(CC(=O)NC3CCOCC3)nc3cnc4[nH]ccc4c32)CC1 [Ex. 5] ?
Result block: 5330

Query block: Also, N#CCC1CCC(n2c(-c3c[nH]cn3)nc3cnc4[nH]ccc4c32)CC1 (stereo not drawn) [Ex. 2] please.
Result block: 7600

---

Target: Tyk2-JH1JH2 (Homo sapiens (Human), UniProt P29597, C1142A/C936A)
Sequence (P29597 580-1182 C936A/C1142A): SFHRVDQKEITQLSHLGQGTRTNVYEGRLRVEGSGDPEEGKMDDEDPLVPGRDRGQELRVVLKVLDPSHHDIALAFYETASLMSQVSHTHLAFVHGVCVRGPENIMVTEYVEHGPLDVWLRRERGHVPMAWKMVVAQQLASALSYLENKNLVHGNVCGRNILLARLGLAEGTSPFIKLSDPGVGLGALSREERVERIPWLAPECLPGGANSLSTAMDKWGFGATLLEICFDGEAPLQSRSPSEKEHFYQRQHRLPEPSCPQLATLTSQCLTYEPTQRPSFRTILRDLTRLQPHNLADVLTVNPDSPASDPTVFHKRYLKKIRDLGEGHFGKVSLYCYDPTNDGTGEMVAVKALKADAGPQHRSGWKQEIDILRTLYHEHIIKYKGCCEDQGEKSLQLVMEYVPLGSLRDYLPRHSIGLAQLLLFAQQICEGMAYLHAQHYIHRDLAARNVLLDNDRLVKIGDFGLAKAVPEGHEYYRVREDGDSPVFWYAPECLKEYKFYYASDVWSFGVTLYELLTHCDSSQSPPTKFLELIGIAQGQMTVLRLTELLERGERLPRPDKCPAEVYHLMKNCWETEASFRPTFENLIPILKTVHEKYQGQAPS
Experiment: Enzymatic inhibition assay (RapidFire HTMS), Tyk2
Settings: 50 μM ATP, 200 μM substrate
Source text: LC/MS grade Water and Acetonitrile (ACN), were purchased from HoneyWell, Burdick & Jackson (Muskegon, Mich., USA). Dimethylsulfoxide 99.8% (DMSO) and Trifluoroacetic Acid 99.5% (TFA) were purchased from EMD Chemical (Gibbstown, N.J., USA). Adenosine triphosphate (ATP), 4-Morpholinepropanesulfonic acid (MOPS), Magnesium chloride (MgCl2), ethylenediaminetetraacetic acid (EDTA), dithiothreitol (DTT), formic acid >95% (FA) and Tween-20 were purchased from Sigma (St Louis, Mo., USA). […]
Below, each entry is listed with its recorded pIC50.
For clarity, pIC50 is expressed as the negative log10 of concentration in mol/L.

// worked examples, pIC50 included
molecule=N#CC[C@H]1CC[C@H](n2c(C3CNC3)nc3cnc4[nH]ccc4c32)CC1 measured_endpoint=pIC50 observed=7.72
molecule=N#CC[C@H]1CC[C@H](n2c(-c3ccc(C(=O)c4ccccc4)cc3)nc3cnc4[nH]ccc4c32)CC1 measured_endpoint=pIC50 observed=7.47

Query block: Given the molecule N#CC[C@H]1CC[C@H](n2c(CC(=O)NCCOCCOCCN)nc3cnc4[nH]ccc4c32)CC1 , what is its reported pIC50?
Result block: 8.28

Query block: Same for N#CC[C@H]1CC[C@H](n2c(CC(=O)N[C@H]3C[C@H](O)C3)nc3cnc4[nH]ccc4c32)CC1
Result block: 8.37

Query block: For N#CC[C@H]1CC[C@H](n2c(CC(=O)N3CC[C@H](O)C3)nc3cnc4[nH]ccc4c32)CC1 then?
Result block: 8.11

Query block: Further, for N#CC[C@H]1CC[C@H](n2c(CC(=O)NC34CCC(C(N)=O)(CC3)CC4)nc3cnc4[nH]ccc4c32)CC1 ?
Result block: 8.48

Query block: Record: N#CCCC(=O)NCc1nc2cnc3[nH]ccc3c2n1[C@H]1CC[C@H](CC#N)CC1
Result block: 7.40
